Target Entity: OsSMF1 (Oryza sativa, UniProt Q6ZLB0 1-436)
Sequence: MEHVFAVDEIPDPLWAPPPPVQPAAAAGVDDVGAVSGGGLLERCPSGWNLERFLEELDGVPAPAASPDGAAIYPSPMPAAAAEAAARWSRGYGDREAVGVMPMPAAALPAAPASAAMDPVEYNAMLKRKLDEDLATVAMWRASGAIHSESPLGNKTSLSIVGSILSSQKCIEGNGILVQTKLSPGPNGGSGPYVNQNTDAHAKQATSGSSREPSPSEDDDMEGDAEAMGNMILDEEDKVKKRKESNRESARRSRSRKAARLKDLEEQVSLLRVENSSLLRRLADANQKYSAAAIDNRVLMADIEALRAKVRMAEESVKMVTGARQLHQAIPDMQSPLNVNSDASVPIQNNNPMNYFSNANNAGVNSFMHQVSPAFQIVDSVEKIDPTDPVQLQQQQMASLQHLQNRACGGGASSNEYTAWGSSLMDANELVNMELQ
Assay Explanation: protein-binding microarray (RPBM); PBS, 2% BSA, 51.3 ng/ul salmon testes DNA, 50 uM zinc acetate, 200 nM TF, 25 C, 1 h; high values mean tight binding
Condition Context: protein: recombinant; tags: N-terminal polyhistidine and DsRed monomer fusion (pET32a); chain copies: 2; label: CyDye5-dUTP incorporated in the synthesized complementary strand; 3' TTTTT single-stranded linker to array surface; dsDNA, one strand shown
In all, about 39,000 sequences were measured (“fluorescence intensity (a.u.)”: median about 4,300, highest 2% from about 39,000 on). For the sample, the highest values were picked, then their nearest neighbours and some sequences at random.
Observable: binding signal

Chain Sequence: CTTCAGTCCCGGTTGGTAAGGCTCAGCCGGCCACGTGGCTCGGAGTCACCTAGTGCAG
Observable: binding signal
Endpoint Value: 17200 fluorescence intensity (a.u.)
//
Chain Sequence: GCGCCCCATCCACGCGTCATGCATCCACGTCGGGGCTGCACGGAGTCACCTAGTGCAG
Observable: binding signal
Endpoint Value: 11600 fluorescence intensity (a.u.)
//
Chain Sequence: TATCAAATTATAGCGCAATTAGGCTCAAAAGATTCAGATTCGGAGTCACCTAGTGCAG
Observable: binding signal
Endpoint Value: 26600 fluorescence intensity (a.u.)
//
Chain Sequence: TGTCAAATCATGACGCAATTAGGCTCAGAAGATTCGTCTCCGGAGTCACCTAGTGCAG
Observable: binding signal
Endpoint Value: 4030 fluorescence intensity (a.u.)
//
Chain Sequence: GGCTCAAAAGATTCATCTCGCGATTTCCATACAAACTGTACGGAGTCACCTAGTGCAG
Observable: binding signal
Endpoint Value: 46300 fluorescence intensity (a.u.)
